Measured Spore Germination Rating values are reported for all entries that follow.
# System: Uromyces phaseoli
# assay-overview: Spore germination test
# Type: cell-based
# condition-parameters: UP, 10 ppm, 48 hours
# Procedure: The test chemical was dissolved or suspended in acetone in an amount such that 0.8 ml of the resulting suspension or solution, mixed with 40 ml water agar produced a water agar solution containing 40, 10, 2.5 and 1 ppm of test chemical. The resulting agar solution, at 50° C., was then divided equally between two sterile petri dishes, each having four separated quadrants, and allowed to solidify. […] Readings were then taken and the percentage of germinated spores calculated. […]
value-kind: Spore Germination Rating

compound | test-result
O=c1c(Cl)nsnc1Oc1cccc(Cl)c1Cl [Compound 19] | 0 (0-10)
COc1ccc(Oc2nsnc(Cl)c2=O)cc1 [Compound 5] | 0 (0-10)
Cc1cc(Oc2nsnc(Cl)c2=O)cc(C)c1Br [Compound 60] | 0 (0-10)
Cc1cccc(C)c1Oc1nsnc(Cl)c1=O [Compound 24] | 0 (0-10)
O=c1c(Cl)nsnc1Oc1cc(Cl)cc(Cl)c1 [Compound 20] | 0 (0-10)
Cc1ccccc1Oc1nsnc(Cl)c1=O [Compound 22] | 1 (10-40)

###

# System: Alternaria solani
# assay-overview: Mycelial growth test
# Type: cell-based
# condition-parameters: Alternaria solani, 72 h, AS, 5 ppm, read-out: Percent Fungus Growth Inhibition
Group membership follows inhibition at 5 ppm per the scheme low value (below 60%), medium value (60% to below 90%), high value (90% or more)

compound | assigned-class
CC(=O)Nc1cccc(Oc2nsnc(Cl)c2=O)c1 [Compound 42] | low value
O=c1c(Cl)nsnc1Oc1ccc(F)cc1 [Compound 11] | medium value
O=C(Nc1ccccc1)Nc1ccc(Oc2nsnc(Cl)c2=O)cc1 [Compound 29] | low value
O=c1c(Cl)nsnc1Cl [Compound 1, 3,5-dichloro-4H--1,2,6-thiadiazin-4-one] | high value
O=c1c(Cl)nsnc1Oc1ccccc1Cl [Compound 14] | medium value
O=c1c(Cl)nsnc1Oc1ccccc1Br [Compound 34] | high value
Cc1cc(Oc2nsnc(Cl)c2=O)cc(C)c1Br [Compound 60] | low value
O=c1c(Cl)nsnc1Oc1ccc(Cl)cc1Cl [Compound 17] | medium value

###

# Test system: Alternaria solani
# assay-overview: Mycelial growth test
# Format: cell-based
# condition-parameters: Alternaria solani, 72 h, AS, 10 ppm, read-out: Percent Fungus Growth Inhibition
Would you mind labelling by inhibition at 10 ppm? At or over 80% is condition met, under is condition not met.

compound | assigned-class
O=c1c(Cl)nsnc1Cl [Compound 1, 3,5-dichloro-4H--1,2,6-thiadiazin-4-one] | condition met
O=c1c(Cl)nsnc1Oc1cccc2ccccc12 [Compound 32] | condition not met
Cc1cc(Cl)ccc1Oc1nsnc(Cl)c1=O [Compound 55] | condition met
Cc1cc(Oc2nsnc(Cl)c2=O)cc(C)c1Cl [Compound 59] | condition not met
Cc1cccc(Oc2nsnc(Cl)c2=O)c1 [Compound 21] | condition not met
COc1ccc(Oc2nsnc(Cl)c2=O)cc1 [Compound 5] | condition met
O=c1c(Cl)nsnc1Oc1cc(Cl)cc(Cl)c1 [Compound 20] | condition not met

###

# System: Sclerotinia fructicola
# assay-overview: Mycelial growth test
# Assay type: cell-based
# condition-parameters: Sclerotinia, 72 h, SF, 5 ppm, read-out: Percent Fungus Growth Inhibition

compound | inhibition at 5 ppm
N#Cc1c(Cl)c(Cl)c(Cl)c(C#N)c1Cl [Chlorothalonil, reference compound] | 67%
COc1ccc(Oc2nsnc(Cl)c2=O)cc1 | 27%
O=c1c(Cl)nsnc1Oc1c(Cl)cc(Cl)cc1Cl | 50%
O=c1c(Cl)nsnc1Oc1ccc(Br)cc1 | 92%
CSc1ccc(Oc2nsnc(Cl)c2=O)cc1 | 41%
O=c1c(Cl)nsnc1Oc1ccccc1Cl | 47%
Cc1cc(Cl)c(Oc2nsnc(Cl)c2=O)cc1C | 56%
CNC(=O)Nc1ccc(Oc2nsnc(Cl)c2=O)cc1 | 17%
COc1ccc(Cl)c(Oc2nsnc(Cl)c2=O)c1 | 69%
O=c1c(Cl)nsnc1Oc1ccc(F)cc1 | 100%
O=c1c(Cl)nsnc1Oc1cccc(Cl)c1 | 51%
Cc1ccc(Oc2nsnc(Cl)c2=O)c(C)c1 | 82%
Cc1ccc(Oc2nsnc(Cl)c2=O)cc1 | 27%
O=C(OCc1ccccc1)Oc1ccc(Oc2nsnc(Cl)c2=O)cc1 | 0%
C[S+]([O-])c1ccc(Oc2nsnc(Cl)c2=O)cc1 (stereo not shown) | 4%
CCOC(=O)c1ccc(Oc2nsnc(Cl)c2=O)cc1 | 54%
O=C(Nc1ccccc1)Nc1ccc(Oc2nsnc(Cl)c2=O)cc1 | 28%
N#CCc1ccc(Oc2nsnc(Cl)c2=O)cc1 | 19%
O=c1c(Cl)nsnc1Oc1ccc(Cl)cc1Cl | 62%
Cc1cc(Oc2nsnc(Cl)c2=O)ccc1Cl | 49%
Cc1ccccc1Oc1nsnc(Cl)c1=O | 24%
Cc1cccc(Oc2nsnc(Cl)c2=O)c1 | 100%

###

# Test system: Alternaria solani
# assay-overview: Mycelial growth test
# Type: cell-based
# condition-parameters: Alternaria solani, 72 h, AS, 10 ppm, read-out: Percent Fungus Growth Inhibition

compound | unit-text | inhibition at 10 ppm
CC(=O)c1ccccc1Oc1nsnc(Cl)c1=O [Compound 49] | % | 100
CCOC(=O)c1ccc(Oc2nsnc(Cl)c2=O)cc1 [Compound 7] | % | 75
COc1ccc(Cl)c(Oc2nsnc(Cl)c2=O)c1 [Compound 51] | % | 75
O=c1c(Cl)nsnc1Oc1ccc(F)cc1 [Compound 11] | % | 83
O=c1c(Cl)nsnc1Oc1cccc(Cl)c1Cl [Compound 19] | % | 62
O=c1c(Cl)nsnc1Oc1ccccc1Br [Compound 34] | % | 100
O=c1c(Cl)nsnc1Oc1c(Cl)cc(Cl)cc1Cl [Compound 30] | % | 67
C[S+]([O-])c1ccc(Oc2nsnc(Cl)c2=O)cc1 (centres unmarked) [Compound 40] | % | 75
COc1cc(Cl)cc(Oc2nsnc(Cl)c2=O)c1 [Compound 52] | % | 71
CC(=O)Nc1ccccc1Oc1nsnc(Cl)c1=O [Compound 43] | % | 100
CC(=O)Nc1cccc(Oc2nsnc(Cl)c2=O)c1 [Compound 42] | % | 33

###

# System: Alternaria solani
# assay-overview: Mycelial growth test
# Format: cell-based
# condition-parameters: Alternaria solani, 72 h, AS, 5 ppm, read-out: Percent Fungus Growth Inhibition

chemical-structure | inhibition at 5 ppm / %
O=c1c(Cl)nsnc1Oc1ccccc1 | 75
CS(=O)(=O)c1ccc(Oc2nsnc(Cl)c2=O)cc1 | 54
Cc1cc(Oc2nsnc(Cl)c2=O)ccc1Cl | 70
Cc1cccc(C)c1Oc1nsnc(Cl)c1=O | 100
O=c1c(Cl)nsnc1Oc1c(Cl)cc(Cl)cc1Cl | 29
Cc1cc(Cl)c(Oc2nsnc(Cl)c2=O)cc1C | 48

###

# Test system: Pyricularia oryzae
# Type: cell-based
# condition-parameters: PO, 1.0 ppm, 48 hours
Collected Spore Germination Rating values appear next to each entry.
value-kind: Spore Germination Rating

compound | value-kind | test-result
CC(=O)Nc1ccc(Oc2nsnc(Cl)c2=O)cc1 [Compound 8] | Spore Germination Rating | 4 (80-100)
Cc1cc(Oc2nsnc(Cl)c2=O)ccc1Cl [Compound 54] | Spore Germination Rating | 0 (0-10)
O=c1c(Cl)nsnc1Oc1cccc(Cl)c1 [Compound 13] | Spore Germination Rating | 3 (60-80)
Cc1cccc(Oc2nsnc(Cl)c2=O)c1 [Compound 21] | Spore Germination Rating | 4 (80-100)
O=c1c(Cl)nsnc1Oc1ccccc1Cl [Compound 14] | Spore Germination Rating | 3 (60-80)
Cc1ccc(Cl)c(Oc2nsnc(Cl)c2=O)c1 [Compound 56] | Spore Germination Rating | 0 (0-10)
CC(=O)c1ccc(Oc2nsnc(Cl)c2=O)cc1 [Compound 47] | Spore Germination Rating | 1 (10-40)
CC(=O)c1ccccc1Oc1nsnc(Cl)c1=O [Compound 49] | Spore Germination Rating | 2 (40-60)
O=c1c(Cl)nsnc1Oc1c(Cl)c(Cl)c(Cl)c(Cl)c1Cl [Compound 31] | Spore Germination Rating | 0 (0-10)
CC(=O)Nc1cccc(Oc2nsnc(Cl)c2=O)c1 [Compound 42] | Spore Germination Rating | 4 (80-100)
O=c1c(Cl)nsnc1Oc1ccc(F)cc1 [Compound 11] | Spore Germination Rating | 3 (60-80)

###

# Tested on: Uromyces phaseoli
# assay-overview: whole plant or invertebrate
# condition-parameters: foliar, read-out: Percent Disease Control, foliar, bean rust
Recorded pest or weed control at 150 ppm by entry
value-kind: pest or weed control at 150 ppm

chemical-structure | value-kind | test-result
O=c1c(Cl)nsnc1Oc1cc(Cl)cc(Cl)c1 | pest or weed control at 150 ppm | 100%
CNC(=O)Nc1ccc(Oc2nsnc(Cl)c2=O)cc1 | pest or weed control at 150 ppm | 0%
Cc1ccccc1Oc1nsnc(Cl)c1=O | pest or weed control at 150 ppm | 100%
Cc1ccc(Oc2nsnc(Cl)c2=O)cc1 | pest or weed control at 150 ppm | 100%
O=c1c(Cl)nsnc1Oc1cccc(Cl)c1 | pest or weed control at 150 ppm | 100%
O=c1c(Cl)nsnc1Oc1ccccc1Cl | pest or weed control at 150 ppm | 0%

Values compiled from patent US4450269A.
